Target system: human recombinant melanocortin-1 receptor (human, UniProt Q01726 1-317)
Sequence (Q01726 whole entry): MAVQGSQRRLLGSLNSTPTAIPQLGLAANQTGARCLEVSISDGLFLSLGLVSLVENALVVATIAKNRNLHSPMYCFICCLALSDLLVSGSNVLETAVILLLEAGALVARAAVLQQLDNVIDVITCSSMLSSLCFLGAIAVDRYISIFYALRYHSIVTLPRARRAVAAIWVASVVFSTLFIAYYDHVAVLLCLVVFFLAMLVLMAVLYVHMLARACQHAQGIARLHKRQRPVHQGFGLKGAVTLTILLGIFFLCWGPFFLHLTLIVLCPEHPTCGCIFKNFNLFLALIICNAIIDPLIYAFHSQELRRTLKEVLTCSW
Protocol notes: cell-based or functional assay
Bridge positions count the residues as written; N and C are the ends. Square brackets hold non-standard residues; d marks the D form. Orn = NCCC[C@H](N)C(=O)O
Please respond with reported hMC1-R Emax (%) for every item in the list.
Give bare numbers, in %.

- Ac-[dR]DQ[dF]RWK-NH2 (lactam 2-7, also called peptide No. 71) [Ac-D-Arg-cyclo(Asp-Gln-D-Phe-Arg-Trp-Lys)-NH2]: 88
- Ac-R[Orn]Q[dF]RWE-NH2 (lactam 2-7) [Ac-Arg-cyclo(Orn-Gln-D-Phe-Arg-Trp-Glu)-NH2]: 89
- Ac-REN[dF]RW[Orn]-NH2 (lactam 2-7, also called peptide No. 161) [Ac-Arg-cyclo(Glu-Asn-D-Phe-Arg-Trp-Orn)-NH2]: 85

Turning to the following binder.
Req: What value of hMC1-R Emax (%) has been recorded for this entry: Ac-[dR][Orn]N[dF]RWE-NH2 (lactam 2-7, also called peptide No. 156) [Ac-D-Arg-cyclo(Orn-Asn-D-Phe-Arg-Trp-Glu)-NH2]
Resp: 81
